Below, each entry is listed with its recorded cytotoxicity at 70.5 h.
Test: Human HepG2 cell viability assay in 384 well format
Assay type: toxicity, cell-based
Set-up: dose 125 nL, time 70.5 hour; concentration not given beside the values
Conditions: HepG2 cells, read-out: Inhibition
observed property: cytotoxicity at 70.5 h (%)

1) CNc1cc(-c2cccc(CN)c2)c2cc[nH]c2n1 = -13.9
2) CC(=O)Nc1nc(C(=O)N2CCCC2c2noc(C3CC3)n2)cs1 (stereo unspecified) = -3.64
3) CN(C)CCNc1cc(-c2ncccc2C(F)(F)F)c2cc[nH]c2n1 = -6.02
4) Cc1noc(CNc2ccccc2C(=O)N2CCCC(O)C2)n1 (stereo unspecified) = 5.5
5) Cn1ccc(C(=O)NC2CCC23CCN(Cc2cnn(C)c2)CC3)c1 (stereo unspecified) = -1.29
6) CS(=O)(=O)N1Cc2nc(C(=O)NCc3ccccc3)oc2C1 = -5.1
7) Cc1cc(NCc2cc3n(n2)CCCN(C(=O)C2CCC2)C3)ncn1 = 0.388
8) O=C([C@H]1CCCO1)N1CCc2ncnc(C3CC3)c2CC1 = -11.8
9) CCNC(=O)C(C)(C)NC(=O)NCc1cccc(Br)c1 = -8.53
10) c1ccc(-c2n[nH]c(CCNc3nnc(C4CCC4)o3)n2)cc1 = -7.22
11) CCOC1CCN(C(=O)NCCN(C)C(=O)OC(C)(C)C)CC1 = -3.79
